tested on: Ipomoea hederacea (IPOHE); experiment: Post-emergence Test, Ipomoea hederacea (IPOHE); format: in vivo; set-up: key: 5=81-100%, 4=61-80%, 3=41-60%, 2=21-40%, 1=0-20% damage; conditions: 1000 g/ha, evaluated after 13 days
PARAMETER: percentage damage caused to the plant, IPOHE (five-point scale)

Reported percentage damage caused to the plant, IPOHE (five-point scale) of "CCn1c(Cn2ccc(Cl)n2)cc(=O)c(C(=O)O)c1-c1ccc(Cl)c(C#N)c1" : 1 (1=0-20%)

Reported percentage damage caused to the plant, IPOHE (five-point scale) of "CCn1c(Cn2nc(C(F)(F)F)cc2OCCOC)cc(=O)c(C(=O)O)c1-c1ccc(Cl)c(Cl)c1" : 2 (2=21-40%)

Reported percentage damage caused to the plant, IPOHE (five-point scale) of "CCn1c(Cn2ccc(Br)n2)cc(=O)c(C(=O)O)c1-c1ccc(Cl)c(Cl)c1" : 3 (3=41-60%)

Reported percentage damage caused to the plant, IPOHE (five-point scale) of "CCn1c(Cn2nccc2COC)cc(=O)c(C(=O)O)c1-c1ccc(Cl)c(Cl)c1" : 3 (3=41-60%)

Reported percentage damage caused to the plant, IPOHE (five-point scale) of "CCn1c(Cn2ccc(C(F)(F)F)n2)c(-c2ccc(Cl)cc2)c(=O)c(C(=O)O)c1-c1ccc(Cl)c(Cl)c1" : 3 (3=41-60%)

Reported percentage damage caused to the plant, IPOHE (five-point scale) of "CCn1c(Cn2cc(C(=O)OC)cn2)cc(=O)c(C(=O)O)c1-c1ccc(Cl)c(Cl)c1" : 2 (2=21-40%)

Reported percentage damage caused to the plant, IPOHE (five-point scale) of "CCn1c(Cn2ccc(C(F)(F)F)n2)cc(=O)c(C(=O)O)c1-c1ccc(Cl)c(C#N)c1" : 1 (1=0-20%)

Reported percentage damage caused to the plant, IPOHE (five-point scale) of "CCOc1cc(C(F)(F)F)nn1Cc1cc(=O)c(C(=O)O)c(-c2ccc(Cl)c(Cl)c2)n1CC" : 2 (2=21-40%)

Reported percentage damage caused to the plant, IPOHE (five-point scale) of "CCn1c(Cn2cc(Cl)cn2)cc(=O)c(C(=O)O)c1-c1ccc(Cl)c(Cl)c1" : 3 (3=41-60%)

Reported percentage damage caused to the plant, IPOHE (five-point scale) of "CCn1c(Cn2cnc(C#N)c2C#N)cc(=O)c(C(=O)O)c1-c1ccc(Cl)c(Cl)c1" : 0

Reported percentage damage caused to the plant, IPOHE (five-point scale) of "CCOC(=O)c1c(-c2ccc(Cl)c(Cl)c2)n(CC)c(Cn2ccc(Cl)n2)c(Br)c1=O" : 0

Reported percentage damage caused to the plant, IPOHE (five-point scale) of "Cn1c(Cn2ccc(C(F)(F)F)n2)cc(=O)c(C(=O)O)c1-c1ccc(Cl)c(Cl)c1" : 3 (3=41-60%)

Reported percentage damage caused to the plant, IPOHE (five-point scale) of "CCn1c(Cn2nc(Cl)cc2C(F)(F)F)cc(=O)c(C(=O)O)c1-c1ccc(Cl)c(Cl)c1" : 3 (3=41-60%)

Reported percentage damage caused to the plant, IPOHE (five-point scale) of "CCC(=O)Nc1ccn(Cc2cc(=O)c(C(=O)O)c(-c3ccc(Cl)c(Cl)c3)n2CC)n1" : 0

Reported percentage damage caused to the plant, IPOHE (five-point scale) of "CCOC(=O)c1c(-c2ccc(Cl)c(Cl)c2)n(CC)c(Cn2cnc([N+](=O)[O-])n2)cc1=O" : 0

Reported percentage damage caused to the plant, IPOHE (five-point scale) of "CCn1c(Cn2nc(Cl)cc2C)cc(=O)c(C(=O)O)c1-c1ccc(Cl)c(Cl)c1" : 5 (5=81-100%)

Reported percentage damage caused to the plant, IPOHE (five-point scale) of "CCOC(=O)c1c(-c2cccc(Cl)c2)n(CC)c(Cn2ccc(C(F)(F)F)n2)cc1=O" : 3 (3=41-60%)

Reported percentage damage caused to the plant, IPOHE (five-point scale) of "CCn1c(Cn2cc(C(=O)OC)cn2)cc(=O)c(C(=O)OC(C)(C)C)c1-c1ccc(Cl)c(Cl)c1" : 0

Reported percentage damage caused to the plant, IPOHE (five-point scale) of "CCn1c(Cn2nccc2Cl)cc(=O)c(C(=O)O)c1-c1ccc(Cl)c(Cl)c1" : 3 (3=41-60%)

Reported percentage damage caused to the plant, IPOHE (five-point scale) of "CCn1c(Cn2ncc3ccccc32)cc(=O)c(C(=O)O)c1-c1ccc(Cl)c(Cl)c1" : 4 (4=61-80%)

Reported percentage damage caused to the plant, IPOHE (five-point scale) of "CCn1c(Cn2ccc(I)n2)cc(=O)c(C(=O)O)c1-c1ccc(Cl)c(Cl)c1" : 4 (4=61-80%)

Reported percentage damage caused to the plant, IPOHE (five-point scale) of "CCn1c(Cn2ccc(C(C)=O)n2)cc(=O)c(C(=O)O)c1-c1ccc(Cl)c(Cl)c1" : 1 (1=0-20%)

Reported percentage damage caused to the plant, IPOHE (five-point scale) of "CCn1c(Cn2nc(C(F)F)c3c2CCOC3)cc(=O)c(C(=O)O)c1-c1ccc(Cl)c(Cl)c1" : 1 (1=0-20%)

Reported percentage damage caused to the plant, IPOHE (five-point scale) of CCn1c(Cn2nc(C(F)(F)F)cc2C)cc(=O)c(C(=O)O)c1-c1ccc(Cl)c(Cl)c1 [Compound 13a] : 2 (2=21-40%)

Reported percentage damage caused to the plant, IPOHE (five-point scale) of CCn1c(C(C)n2ccc(C(F)(F)F)n2)cc(=O)c(C(=O)O)c1-c1ccc(Cl)c(Cl)c1 (stereo not shown) : 1 (1=0-20%)

Reported percentage damage caused to the plant, IPOHE (five-point scale) of "CCn1c(Cn2ccc(CC#N)n2)cc(=O)c(C(=O)O)c1-c1ccc(Cl)c(Cl)c1" : 2 (2=21-40%)

Reported percentage damage caused to the plant, IPOHE (five-point scale) of "CCn1c(Cn2ccc(Cl)n2)cc(=O)c(C(=O)O)c1-c1ccc(Cl)c(Cl)c1" : 4 (4=61-80%)

Reported percentage damage caused to the plant, IPOHE (five-point scale) of "CCn1c(Cn2nc(C)cc2OC(C)(C)C)cc(=O)c(C(=O)O)c1-c1ccc(Cl)c(Cl)c1" : 0

Reported percentage damage caused to the plant, IPOHE (five-point scale) of "CCn1c(Cn2ccc(SC)n2)cc(=O)c(C(=O)O)c1-c1ccc(Cl)c(Cl)c1" : 2 (2=21-40%)

Reported percentage damage caused to the plant, IPOHE (five-point scale) of "CCn1c(Cn2nc(C)cc2OC(F)F)cc(=O)c(C(=O)O)c1-c1ccc(Cl)c(Cl)c1" : 2 (2=21-40%)

Reported percentage damage caused to the plant, IPOHE (five-point scale) of "CCn1c(Cn2cc(C(F)(F)F)nc2C)cc(=O)c(C(=O)O)c1-c1ccc(Cl)c(Cl)c1" : 0
